METRIC_NAME: glass transition temperature (°C)
Give just the number in °C; leave the unit off.

# MOLECULE, glass transition temperature / °C
measured = [
    ("*c1ccc(Oc2ccc(C(=O)c3cccc(C(=O)c4ccc(Oc5ccc(N6C(=O)c7ccc([Si](C)(C)c8ccc9c(c8)C(=O)N(*)C9=O)cc7C6=O)cc5)cc4)c3)cc2)cc1 (repeat unit)", 208.00),
    ("*CC1CCC(CNC(=O)c2cc(C(=O)N*)cc(C(C)(C)C)c2)CC1 (repeat unit)", 236.00),
    ("*CCCCCCCCCCCCNC(=O)CCCCCCCCCCCCCCCCC(=O)N* (repeat unit)", 46.50),
]

Noted for *Oc1ccc(/C(=N/c2ccc(/N=C(\c3ccccc3)c3ccc(Oc4ccc(C(C)(C)c5ccc(*)cc5)cc4)cc3)cc2)c2ccccc2)cc1 (repeat unit) : its glass transition temperature reads 161.00

Entry under test: *CC(*)c1ccc(C(=O)OCCN(CC)CC)cc1 (repeat unit) . Its glass transition temperature was 74.00

glass transition temperature reported for this molecule *Nc1ccc(N[Se]*)cc1 (repeat unit) : 55.00

// recorded glass transition temperature for *c1ccc(Oc2ccc(N3C(=O)c4ccc(C(c5ccc6c(c5)C(=O)N(c5ncc(*)s5)C6=O)(C(F)(F)F)C(F)(F)F)cc4C3=O)cc2)cc1 (repeat unit) : 268.20

The value of glass transition temperature measured for the molecule *Oc1ccc(OC(=O)c2ccc(C(*)=O)cc2)cc1 (repeat unit) turned out to be 267.00

###

METRIC_NAME: glass transition temperature (°C)
Kindly provide the numeric value in °C only, without the unit symbol.

See these solved cases before continuing.
# MOLECULE, ASSAY_RESULT
measured = [
    ("*Oc1ccc(C(=O)NNC(=O)c2cccc(C(=O)NNC(=O)c3ccc(OC(=O)c4cccc(C(*)=O)c4)cc3)c2)cc1 (repeat unit)", 180.00),
    ("*c1ccc(Oc2ccc(-c3ccc4nc(Oc5cc(-c6ccccc6)c6cc(*)ccc6n5)cc(-c5ccccc5)c4c3)cc2)cc1 (repeat unit)", 268.50),
    ("*CCCCCCOC(=O)Nc1ccc(C)c(NC(=O)O*)c1 (repeat unit)", 32.00),
    ("*Oc1ccc(NC(=O)c2ccc(S(=O)(=O)c3ccc(C(=O)Nc4ccc(Oc5ccc(C6(c7ccc(*)cc7)CC7CCC6C7)cc5)cc4)cc3)cc2)cc1 (repeat unit)", 287.00),
    ("*Oc1ccc(CC(NC(=O)CCc2ccc(OC(=O)COCC(*)=O)cc2)C(=O)OCCCCCC)cc1 (repeat unit)", 45.00),
]

For reference, reported glass transition temperature for *CCc1ccc(*)o1 (repeat unit) stands at 25.50

Given item *Oc1ccc(NC(=O)c2cc(NC(=O)CCCN3C(=O)c4ccccc4C3=O)cc(C(=O)Nc3ccc(*)cc3)c2)cc1 (repeat unit) , the value recorded as its glass transition temperature is 225.00

Short answer for *CC(C)(COC(=O)O*)C(=O)OCc1ccccc1 (repeat unit) : glass transition temperature was -2.00

The molecule listed as *C(=O)c1ccc2nc(-c3ccccc3)c(-c3ccc(N4C(=O)c5ccc(C(=O)c6ccc7c(c6)C(=O)N(c6ccc(-c8nc9cc(*)ccc9nc8-c8ccccc8)cc6)C7=O)cc5C4=O)cc3)nc2c1 (repeat unit) has a reported glass transition temperature of 255.00

Given item *c1ccc(Oc2ccc(C(C)(c3ccccc3)c3ccc(Oc4ccc(-c5nc(-c6ccccn6)nnc5*)cc4)cc3)cc2)cc1 (repeat unit) , the value recorded as its glass transition temperature is 232.00

Per the record, *c1ccc(Oc2ccc(Oc3ccc(N4C(=O)c5ccc(Oc6ccc7ccc(Oc8ccc9c(c8)C(=O)N(*)C9=O)cc7c6)cc5C4=O)cc3)cc2)cc1 (repeat unit) has glass transition temperature of 228.00

Consider *c1ccc(Oc2ccc(N3C(=O)c4ccc(Oc5ccc(C6(c7ccc(Oc8ccc9c(c8)C(=O)N(*)C9=O)cc7)CCC(c7ccccc7)CC6)cc5)cc4C3=O)cc2)cc1 (repeat unit) . Its measured glass transition temperature is 236.00

get_value(item= *CCN(CCN1C(=O)c2ccc(C(c3ccc4c(c3)C(=O)N(*)C4=O)(C(F)(F)F)C(F)(F)F)cc2C1=O)c1ccc(/N=N/c2ccc([N+](=O)[O-])cc2)cc1 (repeat unit) , readout=glass transition temperature) returns 210.00
